assay: Cytotoxicity assay against human cancer cell line A-549; type: cell-based; details: A-549 cells
pIC50: −log10 of the molar value.
Would you mind telling me the reported pIC50 of each entry?

molecule	value reported
COc1ccc(-c2cc3c(c(=O)o2)C(C)(C)[C@H](C)O3)cc1OC [Compound 2, japopyrone B]	< 4.40

Consider now this further molecule.
Inquiry: Give its pIC50 value. Item: COc1cc(-c2cc3c(c(=O)o2)C(C)(C)[C@H](C)O3)ccc1O [Compound 1, japopyrone A]
Reply text: < 4.40

* * *

Would you mind telling me the reported IC50 of each entry?
Assay: Cytotoxicity assay against human cancer cell line HL-60
Type: cell-based
Settings: HL-60 cells
From the text: Natural products have provided a rich resource for the discovery of new drugs, innovative therapeutic agents, and lead structures. […]

smiles entry	value reported
COc1ccc(-c2cc3c(c(=O)o2)C(C)(C)[C@H](C)O3)cc1OC	> 40 µM

Consider now this further compound.
Inquiry: Give its IC50 value. Item: `COc1cc(-c2cc3c(c(=O)o2)C(C)(C)[C@H](C)O3)ccc1O`
Reply text: > 40 µM
